Property: IC50, TF-1 cell proliferation; scope: individual binders
# SYSTEM UNDER TEST: T1, human GM-CSFRα, full length on cells (human, UniProt P15509 23-400)
# T1 sequence: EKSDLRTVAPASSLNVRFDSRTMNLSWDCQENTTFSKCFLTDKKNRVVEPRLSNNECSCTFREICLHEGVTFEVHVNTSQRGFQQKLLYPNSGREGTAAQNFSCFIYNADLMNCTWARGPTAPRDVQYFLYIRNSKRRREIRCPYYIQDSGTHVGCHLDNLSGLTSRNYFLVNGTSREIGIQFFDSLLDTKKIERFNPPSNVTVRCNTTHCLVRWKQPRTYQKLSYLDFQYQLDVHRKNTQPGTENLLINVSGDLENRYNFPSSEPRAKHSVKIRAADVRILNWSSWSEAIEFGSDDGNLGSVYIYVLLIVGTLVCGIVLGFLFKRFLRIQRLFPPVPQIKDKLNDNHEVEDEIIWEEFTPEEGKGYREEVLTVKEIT
# EXPERIMENTAL PROTOCOL: cell-based or functional assay
Please reply with the bare figure in µg/mL and do not write the unit itself.

Use the examples below as a reference point.
binder="E35-scFv LG50E (scFv, V domains shown) VH: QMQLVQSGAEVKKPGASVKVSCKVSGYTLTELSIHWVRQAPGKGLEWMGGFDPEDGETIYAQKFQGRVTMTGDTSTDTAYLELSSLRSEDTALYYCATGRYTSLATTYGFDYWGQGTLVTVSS VL: EIVMTQSPATLSLSPGERATLSCRASQSVSSYLAWYQQKPGQAPRLLIYEASSRATGIPDRFSGSGSGTDFTLTISRLEPEDFAVYYCQQYDNWPYTFGQGTKLEIK" measurement=29.9
binder="E35-scFv LA51F (scFv, V domains shown) VH: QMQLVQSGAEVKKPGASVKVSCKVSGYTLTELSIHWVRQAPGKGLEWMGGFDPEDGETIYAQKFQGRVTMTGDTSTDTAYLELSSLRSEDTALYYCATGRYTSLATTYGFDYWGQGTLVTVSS VL: EIVMTQSPATLSLSPGERATLSCRASQSVSSYLAWYQQKPGQAPRLLIYGFSSRATGIPDRFSGSGSGTDFTLTISRLEPEDFAVYYCQQYDNWPYTFGQGTKLEIK" measurement=0.294

Tell me the measured IC50, TF-1 cell proliferation of E35-scFv LS52D (scFv, V domains shown) VH: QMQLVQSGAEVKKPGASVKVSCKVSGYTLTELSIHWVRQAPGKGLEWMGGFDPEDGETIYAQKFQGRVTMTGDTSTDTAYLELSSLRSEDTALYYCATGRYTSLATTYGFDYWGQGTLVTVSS VL: EIVMTQSPATLSLSPGERATLSCRASQSVSSYLAWYQQKPGQAPRLLIYGADSRATGIPDRFSGSGSGTDFTLTISRLEPEDFAVYYCQQYDNWPYTFGQGTKLEIK , please.
1.75
